Please go through the items and note down their %Inh.
# System: PRP4
# Applied Conditions: concentration: 1 μM, replicates: in singlicate; n = 1;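 further: KINOMEscan kinase panel screen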
Express your answer in %, writing the number without its unit.

Incoming: Fill in: %Inh of COc1ccc(NC(=O)c2ccoc2)cc1-c1ccc(C(=O)NCC2CC2)cc1 is ___
Outgoing: 0

Incoming: Param item: CN(c1ccc(F)c(NC(=O)c2cccc(OC(C)(C)C#N)c2Cl)c1)c1ccc2nc(NC(=O)C3CC3)sc2n1
Outgoing: 18

Incoming: Similarly, Cn1cc(-c2cnc(N)c3c(-c4ccc5c(c4)CCN5C(=O)Cc4ccccc4)csc23)cn1 ?
Outgoing: 0

Incoming: Also need COc1cc(Nc2nccc(N3CCC(NS(=O)(=O)c4ccc(NC(C)=O)cc4)CC3)n2)cc(OC)c1OC , thanks.
Outgoing: 18

* * *

# Tested on: SYK
# Applied Conditions: concentration: 1 μM, replicates: in singlicate; n = 1
Hi there, I'd appreciate the recorded %Inh for every entry that follows.
The figure you give is taken to be in %; do not add the unit.

Incoming: Field request: %Inh | item: N#Cc1cnc2cc(-c3cnc(CNCCN4CCOCC4)s3)ccc2c1Nc1ccc(Oc2ccccc2)cc1
Outgoing: 82

Incoming: Let us now turn to CC(C)c1nc(-c2ccc(F)c(NS(=O)(=O)c3c(F)cccc3F)c2)c(-c2ccnc(Nc3ccc(N4CCOCC4)nc3)n2)s1
Outgoing: 46

Incoming: Follow-up item: Cl.N#CCc1ccc(Nc2nccc(Nc3ccc(Oc4ccccc4)cc3)n2)cc1
Outgoing: 5

Incoming: Queued: CCNc1nccc(-c2c(-c3ccc(F)cc3)ncn2C2CCN(C)CC2)n1
Outgoing: 0

* * *

# System: PRKG1
# Applied Conditions: concentration: 1 μM, replicates: in singlicate; n = 1
So I've got a bunch of compounds here, and I need their %Inh values.
Could you give me the number in %? Just the number is fine.

Incoming: Need %Inh of CCn1c(-c2nonc2N)nc2c(-c3ccccc3)ncc(OCCCN)c21.O=C(O)C(F)(F)F.O=C(O)C(F)(F)F [GSK260205] , thanks.
Outgoing: 5

Incoming: # repeat for Cl.Cl.NC(CNC(=O)c1cc(Br)c(-c2ccnc3[nH]ccc23)s1)c1ccccc1 (stereo not shown) [GSK1322949]
Outgoing: 98.5

Incoming: Same lookup for Cl.O=C(Nc1ccc(Oc2ccc3[nH]c(NC(=O)c4ccco4)nc3c2)cc1)Nc1cc(C(F)(F)F)ccc1F [GW683134] , please.
Outgoing: 12

Incoming: O=C(O)C(F)(F)F.O=c1[nH]ccc2nc(N[C@@H]3CCNC3)nc(Nc3ccc4c(c3)S(=O)(=O)CC4)c12 [GSK2181306] , same question.
Outgoing: 56

Incoming: Thanks! And Cc1ccc(O)cc1Nc1ccnc2cc(-c3ccc(CN4CCCCC4)o3)ccc12 [GW557777] ?
Outgoing: 0

Incoming: Another compound: CC(C)c1nc(-c2cccc(NS(=O)(=O)c3c(F)cccc3F)c2)c(-c2ccnc(Nc3ccc(N4CCOCC4)nc3)n2)s1.Cl [GSK1723980]
Outgoing: 0

Incoming: Input CN(c1ccc(NC(=O)N2CCN(CCCN3CCOCC3)CC2)cc1)c1ccnc(Nc2ccc(CS(C)(=O)=O)cc2)n1.Cl [GW830899]
Outgoing: 0

Incoming: Repeat for the following compound: Cn1cc(-c2ccc3c(c2)CCN3C(=O)Cc2cc(F)cc(C(F)(F)F)c2)c2c(N)ncnc21 [GSK2635225]
Outgoing: 0

Incoming: Next compound up: O=C1NC(=O)C(c2ccccc2Cl)=C1Nc1cccc(Cl)c1 [SB-342409]
Outgoing: 0

Incoming: Proceed to Cc1ccc(O)cc1Nc1ccnc2ccc(C(C)(C)C)cc12 [GW856805]
Outgoing: 20

Incoming: Query CSc1ccc(NC2=C(c3ccc(Cl)cc3)C(=O)NC2=O)cc1 [SB-317658] next
Outgoing: 6

Incoming: # iterate: Cc1cc(-c2c(-c3ccc(F)cc3)ncn2CCCN2CCOCC2)nc(N)n1 [SB-222517]
Outgoing: 0

Incoming: Another compound: CN(C)CCNS(=O)(=O)c1ccc(-c2ccnc3[nH]ccc23)cc1 [GSK977620]
Outgoing: 95.4

Incoming: Here is the next compound: COC(=O)Nc1nc2ccc(Oc3ccc(NC(=O)Nc4cc(C(F)(F)F)ccc4F)cc3)cc2[nH]1.Cl [GW654607]
Outgoing: 9

Incoming: Next entry: CN(c1ccc(F)c(NC(=O)c2cccc(OC(C)(C)C#N)c2Cl)c1)c1ccc2nc(NC(=O)C3CC3)sc2n1
Outgoing: 0

Incoming: Same question, COC(=O)Nc1nc2ccc(Oc3ccc(CC(=O)Nc4cc(C(F)(F)F)ccc4F)cc3)cc2[nH]1 [GW680903] this time
Outgoing: 0

Incoming: Moving on to Nc1cccc(-c2ccc3c(N)n[nH]c3c2)c1 [GSK2193613]
Outgoing: 20

Incoming: What do you have for N#Cc1cnc2cc(-c3cnc(CNCCN4CCOCC4)s3)ccc2c1Nc1ccc(Oc2ccccc2)cc1 [GW664114] ?
Outgoing: 0

Incoming: What about this compound? Cn1cc(-c2cnc(N)c3c(-c4ccc5c(c4)CCN5C(=O)Cc4ccccc4)csc23)cn1 [GSK2593074]
Outgoing: 0

* * *

# Test system: EPHA6
# Applied Conditions: concentration: 1 μM, replicates: in singlicate; n = 1
Record rule met whenever %Inh is at 7% or higher; record rule not met when lower.

Incoming: # check: %Inh of Cl.N#CCc1ccc(Nc2nccc(Nc3ccc(Oc4ccccc4)cc3)n2)cc1 is greater than or equal to 7%
Outgoing: rule not met

Incoming: Continue with CC(C)(C)c1ccc(C(=O)Nc2cn3cc(-n4ccnc4)ccc3n2)cc1
Outgoing: rule met

Incoming: # repeat for Nc1ncnc2scc(-c3ccc(NC(=O)Cc4cc(F)ccc4F)cc3)c12.O=C(O)C(F)(F)F
Outgoing: rule not met

Incoming: What do you get for CCNc1nccc(-c2c(-c3ccc(F)cc3)ncn2C2CCN(C)CC2)n1 ?
Outgoing: rule not met

Incoming: Moving on to O=C(Nc1n[nH]c2cc(-c3cccs3)ccc12)C1CC1
Outgoing: rule not met

Incoming: Would you mind doing O=C(Nc1n[nH]c2nc(-c3ccccc3O)ccc12)C1CC1 as well?
Outgoing: rule not met

Incoming: Consider next the molecule CC(=O)Nc1cn2nc(Oc3cccc(NC(=O)c4cccc(C(F)(F)F)c4)c3)ccc2n1 in the same way.
Outgoing: rule met

Incoming: Request: COc1cccc2c(-c3ccncc3)c(-c3ccc(F)cc3)nn12
Outgoing: rule met

* * *

# System: CSNK1D
# Applied Conditions: concentration: 1 μM, replicates: in singlicate; n = 1
Quantity Name: %Inh
A complete answer gives the number and then names the unit.

Incoming: Which %Inh is listed for COc1cc(Nc2nccc(N3CCC(NC(=O)Nc4ccc5c(c4)OCO5)C3)n2)cc(OC)c1OC (centres unmarked) ?
Outgoing: 0%

Incoming: Moving on to c1ccc(Oc2ccc(Nc3ccnc4cc(-c5ccc(CN6CCCCC6)o5)ccc34)cc2)nc1
Outgoing: 10%

Incoming: And the next one, Cc1ccc(C)c(NC(=O)Nc2ccc(C)c(-c3ccc(C(=O)Nc4ccncc4)cc3)c2)c1 ?
Outgoing: 0%

Incoming: Next: CN(c1ccc(F)c(NC(=O)c2cccc(OC(C)(C)C#N)c2Cl)c1)c1ccc2nc(NC(=O)C3CC3)sc2n1
Outgoing: 0%

Incoming: Consider next the molecule CN(C)CCNS(=O)(=O)c1ccc(-c2ccnc3[nH]ccc23)cc1 in the same way.
Outgoing: 38%

Incoming: Now this one: O=C(Nc1n[nH]c2nc(-c3ccccc3O)ccc12)C1CC1
Outgoing: 0%

Incoming: Continue with CS(=O)(=O)c1cccc(CNc2nc(Nc3ccc4c(c3)CCC(=O)N4)ncc2C(F)(F)F)c1
Outgoing: 0%

Incoming: Also need O=C(O)C(F)(F)F.O=c1[nH]ccc2nc(N[C@@H]3CCNC3)nc(Nc3cc(Cl)cc(Cl)c3)c12 , thanks.
Outgoing: 79%

* * *

# Tested on: PRKG2
# Applied Conditions: concentration: 1 μM, replicates: in singlicate; n = 1
So I've got a bunch of compounds here, and I need their %Inh values.
Express it in %; write the number only.

Incoming: Given COC(=O)Nc1nc2ccc(Oc3ccc(NC(=O)Nc4cc(C(F)(F)F)ccc4F)cc3)cc2[nH]1.Cl [GW654607] , state its recorded %Inh.
Outgoing: 10

Incoming: # repeat for COc1ccc(C)c(Nc2ccnc(Nc3ccc(-c4cnc[nH]4)cc3)n2)c1.Cl [GW784041]
Outgoing: 12

Incoming: Also check COc1cccc(C2=C(Nc3cccc(O)c3)C(=O)NC2=O)c1 [SB-390771]
Outgoing: 81

Incoming: Same question for Cn1cc(-c2ccc3c(c2)CCN3C(=O)Cc2cc(F)cc(F)c2F)c2c(N)ncnc21 [GSK2634140] please.
Outgoing: 0

Incoming: Now consider CN(c1ccc2c(c1)nc(NCc1ccccc1)n2C)c1ccnc(Nc2ccc(CS(C)(=O)=O)cc2)n1.Cl [GW811603] .
Outgoing: 4

Incoming: Another: O=C1NC(=O)C(c2ccccc2Cl)=C1Nc1cccc(Cl)c1 [SB-342409]
Outgoing: 0

Incoming: Now consider Cl.Cl.NCC(NC(=O)c1cc(-c2cccnc2)c(-c2ccnc3[nH]ccc23)s1)c1ccccc1 (centres unmarked) [GSK1323434] .
Outgoing: 68

Incoming: Moving on to the next compound: COC(=O)Nc1nc2cc(Oc3ccc(NC(=O)Nc4cccc(SC)c4)cc3)ccc2[nH]1.Cl [GW697999]
Outgoing: 17

Incoming: Same thing, different compound: Cl.N#CCc1ccc(Nc2nccc(Nc3ccc(Oc4ccccc4)cc3)n2)cc1 [GW639905]
Outgoing: 0

Incoming: Also, Cc1ccc(NC(=O)c2ccc(Cl)c(Cl)c2)cc1-c1ccc(C(=O)Nc2ccncc2)cc1 [GSK1398460] please.
Outgoing: 0

Incoming: Moving on to O=C(Nc1n[nH]c2cc(-c3cccs3)ccc12)C1CC1 [SB-731284]
Outgoing: 22

Incoming: Now consider CCNC(=O)/C=C/c1n[nH]c2cc(Sc3ccccc3C(=O)NC)ccc12 .
Outgoing: 2

Incoming: What would you report for CN(C)CCNS(=O)(=O)c1ccc(-c2ccnc3[nH]ccc23)cc1 [GSK977620] ?
Outgoing: 97.4

Incoming: Queued: Cc1ccc(C)c(NC(=O)Nc2ccc(C)c(-c3ccc(C(=O)Nc4ccncc4)cc3)c2)c1 [GSK1398473]
Outgoing: 0

Incoming: Then COC(=O)Nc1nc2ccc(Oc3ccc(CC(=O)Nc4cc(C(F)(F)F)ccc4F)cc3)cc2[nH]1 [GW680903] ?
Outgoing: 0

Incoming: Similarly, Cl.Cl.NC(CNC(=O)c1cc(Br)c(-c2ccnc3[nH]ccc23)s1)c1ccccc1 (centres unmarked) [GSK1322949] ?
Outgoing: 98.4

Incoming: Okay, and CN(C)CCOc1ccc(-c2cc(-c3ccc(Cl)c(O)c3)c(-c3ccncc3)[nH]2)cc1.Cl.Cl [SB-684387] ?
Outgoing: 80

Provenance of the data: paper PMC5540273
